Cited source for all entries: patent US20250049929A1

# Target or test system: SMARCA4 (Homo sapiens)
# Construct: endogenous in cells; host or cells: RKO cells (CRL-2577, ATCC)
# Sequence (P51532 whole entry): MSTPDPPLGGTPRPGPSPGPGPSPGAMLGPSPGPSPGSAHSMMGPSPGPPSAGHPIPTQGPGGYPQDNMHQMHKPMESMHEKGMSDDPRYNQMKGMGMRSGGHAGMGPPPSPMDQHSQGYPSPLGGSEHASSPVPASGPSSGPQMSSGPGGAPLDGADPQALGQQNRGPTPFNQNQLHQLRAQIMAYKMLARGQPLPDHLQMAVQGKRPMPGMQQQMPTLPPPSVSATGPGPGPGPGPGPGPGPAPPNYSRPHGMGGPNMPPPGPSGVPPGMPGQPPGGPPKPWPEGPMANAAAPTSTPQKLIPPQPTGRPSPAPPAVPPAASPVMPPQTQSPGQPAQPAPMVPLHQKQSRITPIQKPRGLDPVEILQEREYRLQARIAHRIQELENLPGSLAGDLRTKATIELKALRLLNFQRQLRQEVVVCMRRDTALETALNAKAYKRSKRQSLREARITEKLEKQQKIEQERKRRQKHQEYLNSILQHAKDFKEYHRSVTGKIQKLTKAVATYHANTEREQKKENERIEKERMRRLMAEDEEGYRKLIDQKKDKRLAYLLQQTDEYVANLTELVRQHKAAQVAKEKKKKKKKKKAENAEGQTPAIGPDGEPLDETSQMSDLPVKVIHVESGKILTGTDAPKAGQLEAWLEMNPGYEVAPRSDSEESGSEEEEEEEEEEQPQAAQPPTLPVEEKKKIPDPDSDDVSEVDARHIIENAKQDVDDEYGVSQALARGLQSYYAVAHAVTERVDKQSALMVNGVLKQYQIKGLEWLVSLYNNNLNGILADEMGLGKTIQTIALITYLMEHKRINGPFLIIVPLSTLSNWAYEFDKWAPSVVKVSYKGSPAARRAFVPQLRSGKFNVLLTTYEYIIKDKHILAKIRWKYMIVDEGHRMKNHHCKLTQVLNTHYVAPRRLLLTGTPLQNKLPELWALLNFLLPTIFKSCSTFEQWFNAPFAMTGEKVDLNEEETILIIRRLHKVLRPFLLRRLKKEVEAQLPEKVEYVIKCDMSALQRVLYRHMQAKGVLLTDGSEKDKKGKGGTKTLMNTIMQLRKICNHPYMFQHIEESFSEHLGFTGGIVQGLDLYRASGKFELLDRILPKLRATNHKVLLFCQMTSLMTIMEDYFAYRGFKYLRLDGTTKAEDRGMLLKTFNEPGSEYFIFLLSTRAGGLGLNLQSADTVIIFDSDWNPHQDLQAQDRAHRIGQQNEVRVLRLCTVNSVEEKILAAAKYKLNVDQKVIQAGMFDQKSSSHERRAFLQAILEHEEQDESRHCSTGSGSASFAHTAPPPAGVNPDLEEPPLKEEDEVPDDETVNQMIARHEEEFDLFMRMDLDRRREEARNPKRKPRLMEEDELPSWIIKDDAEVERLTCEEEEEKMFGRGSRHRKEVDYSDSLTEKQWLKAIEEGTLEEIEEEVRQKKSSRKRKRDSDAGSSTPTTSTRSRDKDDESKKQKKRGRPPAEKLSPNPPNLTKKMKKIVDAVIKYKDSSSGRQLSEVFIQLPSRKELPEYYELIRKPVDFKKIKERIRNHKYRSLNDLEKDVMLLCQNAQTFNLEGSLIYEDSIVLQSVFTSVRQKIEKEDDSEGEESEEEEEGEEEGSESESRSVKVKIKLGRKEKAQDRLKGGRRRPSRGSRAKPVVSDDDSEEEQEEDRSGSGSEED
# Test: SMARCA4 degradation analysis by imaging in RKO cells (DC50 A4)
# Assay type: cell-based
# Conditions: tables 69, 70, 73, 76-78
We begin with a simple list: items and their reported DC50.
Write down the numeric answer in µM and omit the unit.

Here's what some known entries look like.
# Compound, Readout unit, DC50
rows = [
    ("Cc1ncsc1-c1ccc([C@H](COCCCN2CCC(c3ccc4c(c3)n(C3CCCC3)c3nc(=O)c5c(Br)cccc5n43)CC2)NC(=O)[C@@H]2C[C@@H](O)CN2C(=O)[C@@H](NC(=O)C2(F)CC2)C(C)(C)C)cc1 [Compound 42ak]", "µM", 0.011),
    ("Cc1ncsc1-c1ccc([C@H](CO[C@H](C)CN2CCC(c3ccc4c(c3)n(C3CCCC3)c3nc(=O)c5c(Cl)cccc5n43)CC2)NC(=O)[C@@H]2C[C@@H](O)CN2C(=O)[C@@H](NC(=O)C2(F)CC2)C23CC4CC(CC(C4)C2)C3)cc1 [Compound 42r]", "µM", 0.027),
    ("Cc1ncsc1-c1ccc([C@H](COCCN2CCC(c3ccc4c(c3)n(C3CCCC3)c3nc(=O)c5c(Br)cccc5n43)CC2)NC(=O)[C@@H]2C[C@@H](O)CN2C(=O)[C@@H](NC(=O)C2(C3CC3)CC2)C(C)(C)C)cc1 [Compound 42bd]", "µM", 0.064),
]

Query block: // lookup DC50 | system=SMARCA4 (Homo sapiens) | key= COC(=O)C1(C(=O)N[C@H](C(=O)N2C[C@H](O)C[C@H]2C(=O)N[C@@H](COCCN2CCC(c3ccc4c(c3)n(C3CCCC3)c3nc(=O)c5c(Br)cccc5n43)CC2)c2ccc(-c3scnc3C)cc2)C(C)(C)C)CC1 [Compound 42bf]
Result block: 0.087

* * *

# Target or test system: SMARCA4 (Homo sapiens)
# Construct: endogenous in cells; host or cells: RKO cells (CRL-2577, ATCC)
# Test: SMARCA4 degradation analysis by imaging in RKO cells (DC50 A4)
# Type: cell-based
# Conditions: tables 69, 70, 73, 76-78
# DC50 values compiled below

Query block: Which DC50 reading was recorded for the compound Cc1ncsc1-c1ccc([C@H](CCCCCN2C[C@@H]3C[C@H]2CN3c2ccc3c(c2)n(C2CCCC2)c2nc(=O)c4c(Br)cccc4n32)NC(=O)[C@@H]2C[C@@H](O)CN2C(=O)[C@@H](NC(=O)C2(F)CC2)C(C)(C)C)cc1 [Compound 42au] ?
Result block: > 0.833 µM

Query block: # input compound: Cc1ncsc1-c1ccc([C@H](CO[C@@H](CN2CCC(c3ccc4c(c3)n(C3CCCC3)c3nc(=O)c5c(Br)cccc5n43)CC2)C2CC2)NC(=O)[C@@H]2C[C@@H](O)CN2C(=O)[C@@H](NC(=O)C2(F)CC2)C(C)(C)C)cc1 [Compound 42v] ; wanted: its DC50
Result block: > 0.833 µM

Query block: Fill in: DC50 of Cc1ncsc1-c1ccc([C@H](CO[C@@H](C)CN2CCC(c3ccc4c(c3)n(C3CCCC3)c3nc(=O)c5c(Br)cccc5n43)CC2)NC(=O)[C@@H]2C[C@@H](O)CN2C(=O)[C@@H](NC(=O)C2(F)CC2)C(C)(C)C)cc1 [Compound 42ac] is ___
Result block: > 0.2 µM

Query block: Consider the compound Cc1ncsc1-c1ccc([C@H](COCCN2CCC(c3cc4c(cc3OCCN3CCN(C)CC3)n3c5cccc(Br)c5c(=O)nc3n4C3CCCC3)CC2)NC(=O)[C@@H]2C[C@@H](O)CN2C(=O)[C@@H](NC(=O)C2(F)CC2)C(C)(C)C)cc1 [Compound 42ab] and give its measured DC50.
Result block: > 0.2 µM
